Biological target: T1, HSC-F (cynomolgus monkey, UniProt Q95LI8 22-171; Q95LI7 23-181)
T1 chain: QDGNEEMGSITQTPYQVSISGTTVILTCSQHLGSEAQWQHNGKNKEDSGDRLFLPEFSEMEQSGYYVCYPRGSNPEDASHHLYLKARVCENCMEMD
Experiment: FACS binding; Fig 2A
quantity kind: EC50 (µg/mL)
Hi! Could you send only the number? It should be in µg/mL, unit omitted.

Example entries and their recorded answers appear below.
- IgG1-CD3-LFLEDA (antibody, V domains shown) VH: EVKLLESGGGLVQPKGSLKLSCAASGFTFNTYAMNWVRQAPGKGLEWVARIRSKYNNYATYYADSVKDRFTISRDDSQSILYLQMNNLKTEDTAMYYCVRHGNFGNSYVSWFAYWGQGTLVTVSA VL: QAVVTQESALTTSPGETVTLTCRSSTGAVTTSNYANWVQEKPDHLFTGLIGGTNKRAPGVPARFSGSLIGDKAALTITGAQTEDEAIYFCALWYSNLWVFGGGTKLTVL: 0.3
- IgG1-huCD3-H3L3 (antibody, V domains shown) VH: EVKLVESGGGLVKPGRSLRLSCAASGFTFNTYAMNWVRQAPGKGLEWVARIRSKYNNYATYYADSVKDRFTISRDDSKSILYLQMNSLKTEDTAMYYCVRHGNFGNSYVSWFAYWGQGTLVTVSS VL: QAVVTQEPSFSVSPGGTVTLTCRSSTGAVTTSNYANWVQQTPGQAFRGLIGGTNKRAPGVPARFSGSILGNKAALTITGAQADDESDYYCALWYSNLWVFGGGTKLTVL: 0.11
- IgG1-huCD3-H1L3 (antibody, V domains shown) VH: EVKLVESGGGLVQPGGSLRLSCAASGFTFNTYAMNWVRQAPGKGLEWVARIRSKYNNYATYYADSVKDRFTISRDDSKSSLYLQMNNLKTEDTAMYYCVRHGNFGNSYVSWFAYWGQGTLVTVSS VL: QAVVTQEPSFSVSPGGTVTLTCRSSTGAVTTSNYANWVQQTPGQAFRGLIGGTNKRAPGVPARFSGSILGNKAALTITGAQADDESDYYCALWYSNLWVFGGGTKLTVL: 0.28

Proceeding to the next binder to report its EC50.
IN: Endpoint output: EC50 of IgG1-huCD3-H1L2 (antibody, V domains shown) VH: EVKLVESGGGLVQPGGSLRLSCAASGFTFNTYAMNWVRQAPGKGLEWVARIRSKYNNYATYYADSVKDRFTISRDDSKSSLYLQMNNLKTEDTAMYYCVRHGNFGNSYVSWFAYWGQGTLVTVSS VL: QAVVTQEPSFSVSPGGTVTLTCRSSTGAVTTSNYANWVQQTPGQAFRGLIGGTNKRAPGVPARFSGSILGNKAALTITGAQADDESIYFCALWYSNLWVFGGGTKLTVL . Value?
OUT: 0.31
